Provenance of the data: patent US20250320227A1

# Target: human recombinant OX2 (hOX2) receptors expressed in CHO cells (Homo sapiens)
# Procedure Details: IP-1 accumulation assay (IP-One HTRF) in hOX2-CHO cells
# Recorded Conditions: 60 min incubation at 37° C., mean of at least two independent experiments, read-out: EC50_OX2R Category

Compound	Target	EC50
O=C1COC[C@]2(CCCN3C(=O)COc4cccc(F)c4[C@H]4CC[C@H](CC4)OC[C@@H]32)N1 (single isomer, unassigned) [Example 40b]	human recombinant OX2 (hOX2) receptors expressed in CHO cells (Homo sapiens)	1000 to 10000 nM
O=C1COC[C@@]2(CCCN3C(=O)COc4nccc(F)c4[C@H]4CC[C@H](CC4)OC[C@H]32)N1 (single isomer, unassigned) [Example 46a]	human recombinant OX2 (hOX2) receptors expressed in CHO cells (Homo sapiens)	< 100 nM
O=C1COCC2(CCCN3C(=O)CCCOc4ccccc4-c4cccc(c4F)CC32)N1 (racemic)	human recombinant OX2 (hOX2) receptors expressed in CHO cells (Homo sapiens)	1000 to 10000 nM
O=C1COC[C@@]2(CCCN3C(=O)C4(CC4)COc4cccc(F)c4[C@H]4CC[C@H](CC4)OC[C@H]32)N1 (single isomer, unassigned) [Example 72b]	human recombinant OX2 (hOX2) receptors expressed in CHO cells (Homo sapiens)	< 100 nM
O=C1COCC2(CCN3C(=O)CCOc4c(F)cc(F)cc4[C@H]4CC[C@H](CC4)OCC32)N1 (mixture of isomers)	human recombinant OX2 (hOX2) receptors expressed in CHO cells (Homo sapiens)	100 to 1000 nM
O=C1COC[C@@]2(CCCN3C(=O)COc4cc(F)cc(F)c4[C@H]4CC[C@H](CC4)OC[C@H]32)N1 (single isomer, unassigned) [Example 42a]	human recombinant OX2 (hOX2) receptors expressed in CHO cells (Homo sapiens)	< 100 nM

====

# Target: human recombinant OX2 (hOX2) receptors expressed in CHO cells (Homo sapiens, UniProt O43614)
# Procedure Details: IP-1 accumulation assay (IP-One HTRF) in hOX2-CHO cells
# Recorded Conditions: 60 min incubation at 37° C., mean of at least two independent experiments, read-out: EC50_OX2R Category
# EC50 values compiled below

Molecule	EC50
C[C@@H]1C[C@@]2(COCC(=O)N2)[C@@H]2CO[C@H]3CC[C@H](CC3)c3cc(F)cc(F)c3OCCC(=O)N12 [Example 25a]	< 100 nM
O=C1CCCC2(CCCN3C(=O)COc4ccccc4[C@H]4CC[C@H](CC4)OCC32)N1 (mixture of isomers)	< 100 nM
C[C@@H]1C[C@]2(COCC(=O)N2)[C@H]2CO[C@H]3CC[C@H](CC3)c3cccc(Cl)c3OCC(=O)N12 (single isomer, unassigned) [Example 20b]	> 10000 nM
O=C1COC[C@]2(CCCN3C(=O)CCOc4ccc(F)cc4[C@H]4CC[C@H](CC4)OC[C@@H]32)N1 (single isomer, unassigned) [Example 49b]	< 100 nM
C[C@@H]1C[C@@]2(COCC(=O)N2)[C@@H]2CO[C@H]3CC[C@H](CC3)c3cccc(F)c3OCCC(=O)N12 (single isomer, unassigned) [Example 24a]	< 100 nM
Cc1ccc2c(c1)[C@H]1CC[C@H](CC1)OC[C@H]1N(C(=O)CO2)[C@H](C)C[C@]12COCC(=O)N2 (single isomer, unassigned) [Example 22b]	> 10000 nM
O=C1COC[C@@]2(CCCN3C(=O)COc4c(F)cccc4[C@H]4CC[C@H](CC4)OC[C@H]32)N1 (single isomer, unassigned) [Example 38a]	< 100 nM
C[C@@H]1COc2ccccc2[C@H]2CC[C@H](CC2)OC[C@H]2N(CC[C@]23COCC(=O)N3)C1=O (single isomer, unassigned)	> 10000 nM
C[C@@H]1C[C@@]2(COCC(=O)N2)[C@@H]2CO[C@H]3CC[C@H](CC3)c3cc(Cl)ccc3OCC(=O)N12 (single isomer, unassigned) [Example 21a]	100 to 1000 nM
O=C1NC2(CCN3C(=O)CCOc4ccccc4[C@H]4CC[C@H](CC4)OCC32)COC1F (relative stereo)	< 100 nM
C[C@H]1CC(=O)N2CC[C@]3(COCC(=O)N3)[C@H]2CO[C@H]2CC[C@H](CC2)c2ccccc2O1 (single isomer, unassigned)	> 10000 nM
O=C1COCC2(CCCN3C(=O)COc4ncccc4[C@H]4CC[C@H](CC4)OCC32)N1 (stereo partly drawn)	< 100 nM
O=C1COC[C@@]2(CCCN3C(=O)COc4c(F)cc(F)cc4[C@H]4CC[C@H](CC4)OC[C@H]32)N1 (single isomer, unassigned) [Example 39a]	> 10000 nM
O=C1COC[C@]2(CCCN3C(=O)COc4c(F)ccc(F)c4[C@H]4CC[C@H](CC4)OC[C@@H]32)N1 (single isomer, unassigned) [Example 44b]	> 10000 nM
C[C@@H]1CC2(COCC(=O)N2)C2Cc3cccc(c3F)-c3ccccc3OCCN(C)C(=O)N21 (mixture of isomers)	1000 to 10000 nM
CC1(C)Oc2ccccc2[C@H]2CC[C@H](CC2)OCC2N(CCCC23COCC(=O)N3)C1=O (stereo partly drawn)	100 to 1000 nM
O=C1COC[C@]2(CCN3C(=O)CCOc4cccc(F)c4[C@H]4CC[C@H](CC4)OC[C@@H]32)N1 (single isomer, unassigned) [Example 10b]	> 10000 nM
O=C1COC[C@]2(CCN3C(=O)CCOc4ccccc4[C@H]4CC[C@H](CC4)OC[C@@H]32)N1 (single isomer, unassigned)	> 10000 nM
O=C1COC[C@@]2(CCN3C(=O)C4(CC4)COc4cccc(F)c4[C@H]4CC[C@H](CC4)OC[C@H]32)N1 (single isomer, unassigned) [Example 73b]	> 10000 nM
O=C1COc2ccccc2[C@H]2CC[C@H](CC2)OC[C@H]2N1CCC[C@]21CCCS(=O)(=O)N1 (single isomer, unassigned) [Example 59b]	1000 to 10000 nM
O=C1COC[C@]2(CCCN3C(=O)COc4ccc(F)cc4[C@H]4CC[C@H](CC4)OC[C@@H]32)N1 (single isomer, unassigned) [Example 41b]	1000 to 10000 nM
O=C1COCC2(CCCN3C(=O)OCCCOc4cccc(c4)[C@H]4CC[C@H](CC4)OCC32)N1 (mixture of isomers)	< 100 nM
O=C1COC[C@]2(CCCN3C(=O)COc4c(F)cc(F)cc4[C@H]4CC[C@H](CC4)OC[C@@H]32)N1 (single isomer, unassigned) [Example 39b]	< 100 nM
C[C@@H]1C[C@]2(COCC(=O)N2)[C@H]2CO[C@H]3CC[C@H](CC3)c3ccccc3OCC(=O)N12 [Example 12b]	100 to 1000 nM

====

# Target: human recombinant OX2 (hOX2) receptors expressed in CHO cells (Homo sapiens, UniProt O43614)
# Procedure Details: IP-1 accumulation assay (IP-One HTRF) in hOX2-CHO cells
# Recorded Conditions: 60 min incubation at 37° C., mean of at least two independent experiments, read-out: EC50_OX2R Category
pEC50: −log10 of the molar value.
Reported Property: pEC50

Compound	Reported Property	Reported
C[C@@H]1C[C@]2(COCC(=O)N2)[C@H]2CO[C@H]3CC[C@H](CC3)c3cccc(F)c3OCCC(=O)N12 (single isomer, unassigned) [Example 24b]	pEC50	6.00 to 7.00
O=C1COCC2(CCCN3C(=O)COc4ccc(F)cc4[C@H]4CC[C@H](CC4)OCC32)N1 (stereo partly shown)	pEC50	> 7.00
O=C1COCC2(CCCN3C(=O)OCCOc4ccccc4-c4cccc(c4F)CC32)N1 (racemic)	pEC50	< 5.00
O=C1COC[C@@]2(CCCN3C(=O)OCCCOc4cccc(c4)[C@H]4CC[C@H](CC4)OC[C@H]32)N1 (single isomer, unassigned) [Example 54a]	pEC50	> 7.00
Cc1ccc2c(c1)[C@H]1CC[C@H](CC1)OC[C@@H]1N(C(=O)CO2)[C@H](C)C[C@@]12COCC(=O)N2 (single isomer, unassigned) [Example 22a]	pEC50	> 7.00
O=C1CCOc2ccccc2[C@H]2CC[C@H](CC2)OCC2N1CCCC21CCCS(=O)(=O)N1 (stereo partly shown)	pEC50	6.00 to 7.00
Cc1ccnc2c1C1CCC(CC1)OCC1N(CCCC13COCC(=O)N3)C(=O)CO2 (stereo not shown) [Example 77a]	pEC50	> 7.00

====

# Target: human recombinant OX2 (hOX2) receptors expressed in CHO cells (Homo sapiens)
# Sequence (O43614 1-444): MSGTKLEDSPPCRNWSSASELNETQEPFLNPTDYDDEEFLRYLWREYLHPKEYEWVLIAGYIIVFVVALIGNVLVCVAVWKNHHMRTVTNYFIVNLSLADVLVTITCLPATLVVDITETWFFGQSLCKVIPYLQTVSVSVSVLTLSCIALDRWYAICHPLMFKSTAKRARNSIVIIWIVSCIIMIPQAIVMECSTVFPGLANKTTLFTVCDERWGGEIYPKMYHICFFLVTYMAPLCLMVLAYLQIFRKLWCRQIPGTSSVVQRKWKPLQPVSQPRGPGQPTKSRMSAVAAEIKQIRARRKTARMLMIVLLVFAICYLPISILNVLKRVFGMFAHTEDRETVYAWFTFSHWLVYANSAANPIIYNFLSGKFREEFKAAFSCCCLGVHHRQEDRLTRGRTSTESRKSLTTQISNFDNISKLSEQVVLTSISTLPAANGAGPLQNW
# Procedure Details: IP-1 accumulation assay (IP-One HTRF) in hOX2-CHO cells
# Recorded Conditions: 60 min incubation at 37° C., mean of at least two independent experiments, read-out: EC50_OX2R Category
pEC50: −log10 of the molar value.
In this section, each of the molecules is paired with its reported pEC50.

Molecule	pEC50
O=C1COCC2(CCCN3C(=O)CCCCOc4cccc(n4)[C@H]4CC[C@H](CC4)OCC32)N1 (mixture of isomers)	> 7.00
C[C@@H]1CC2(COCC(=O)N2)C2Cc3cccc(c3F)-c3ccccc3OCCC(=O)N21 (mixture of isomers)	5.00 to 6.00
O=C1COC[C@]2(CCCN3C(=O)COc4c(F)cccc4[C@H]4CC[C@H](CC4)OC[C@@H]32)N1 (single isomer, unassigned) [Example 38b]	5.00 to 6.00
O=C1COCC2(CCN3C(=O)CCCOc4ccccc4[C@H]4CC[C@H](CC4)OCC32)N1 (mixture of isomers)	5.00 to 6.00
C[C@@H]1CC(=O)N2CC[C@@]3(COCC(=O)N3)[C@@H]2CO[C@H]2CC[C@H](CC2)c2ccccc2O1 (single isomer, unassigned)	6.00 to 7.00
